# System: hematic levels of triglycerides and total cholesterol
# method_summary: Hypolipidemizing activity in mouse made hyperlipidemic by Triton WR-1339
# Assay type: in vivo, mouse (Swiss)
# conditions_used: 500 mg/kg per os, serum after 18 hours fasting
property_label: Total cholesterol, % mg (% mg)

molecule: CCOC(=O)C(CC)Cc1ccc(N2C(=O)c3ccccc3C2=O)cc1 (stereo not drawn)
system: hematic levels of triglycerides and total cholesterol
recorded_number: 140
--
molecule: CCC(Cc1ccc(NC(=O)c2ccccc2C(=O)O)cc1)C(=O)O (stereo not drawn)
system: hematic levels of triglycerides and total cholesterol
recorded_number: 130
--
molecule: CCOC(=O)C(C)(C)Oc1ccc(Cl)cc1 [Clofibrate, reference compound]
system: hematic levels of triglycerides and total cholesterol
recorded_number: 152

FYI, the data here is from patent US4666936A.
